# assay.comment: total protein half-life in vivo (active degradation + dilution); higher = more stable protein
# run.conditions: E. coli NCM3722 delta-clpP; growth: N-lim chemostat; doubling time 6 h
assay.readout: total protein half-life in vivo (h)
Answers are plain numbers, in h.

## Input Please indicate total protein half-life in vivo recorded for MATAKKITIHDVALAAGVSVSTVSLVLSGKGRISTATGERVNAAIEELGFVRNRQASALRGGQSGVIGLIVRDLSAPFYAELTAGLTEALEAQGRMVFLLHGGKDGEQLAQRFSLLLNQGVDGVVIAGAAGSSDDLRRMAEEKAIPVIFASRASYLDDVDTVRPDNMQAAQLLTEHLIRNGHQRIAWLGGQSSSLTRAERVGGYCATLLKFGLPFHSDWVLECTSSQKQAAEAITALLRHNPTISAVVCYNETIAMGAWFGLLKAGRQSGESGVDRYFEQQVSLAAFTDATPTTLDDIPVTWASTPARELGITLADRMMQKITHEETHSRNLIIPARLIAAK
## Output 6.58
